src = the nanobody polyreactivity screen of Harvey et al. (2022)

procedure.details: yeast display, Sf9 membrane polyspecificity reagent, FACS + sequencing; frameworks hold sequencing errors
measurement.label: polyreactivity (PSR sort gate)

Worked examples follow.
polymer.sequence	polyreactivity (PSR sort gate)
QVQHVESGGGLVQAGGSLRLSCAASGFIFTPYAMGWYRQAPGKEREFVASITWSGGSTNYADSVKGRFTISRDNAKNTVYLQMNSLKPEDTAVYYCNADTWSPNDYWGLGTQVTVSS	low polyreactivity
QVQLVESGGGLVQAGGSLRLSCAASGSTFRQNAMGWYRQAPRKERELVATIRTSGGTTYYADSVKGRFTISRDTAKNTVYLQMNSLKPVDTAVYYCAAVSYLFLYQGYPIAYPMYYWGQGTQVTVSS	low polyreactivity
QVQLVESGGGLVQAGGSLRLSCAASGFIFGYYAMGWYRQAPGKERELVAAISKSGTDTYYADSVKGRFTISRDNAKNTVYLQMNSLKPEDTAVYYCNALLRGYSYGYDYWGQGTQVTVSS	high polyreactivity
QVQLVESGGGLVQAGGSLRLSCAASGFTFTTNAMGWYRQAPGKERELVAAISFSGGTTYYADSVKGRFTISRDNAKNTVYLQMNSLKPEDTAVYYCPAQPGQAWWSTEHDDYWGQGTQVTVSS	low polyreactivity

Turning now to a further sequence:
[in] For `QVQLVESGGGLVQAGGSLRLSCAASGSTFRFYAMGWYRQAPGKERELVAAITGSGGRTYYADSVKGRFTISRDNAKNTVYLQMNSLKPEDTAVYYCSARAYWLTGLTFSYKYNYWGQGTQVTVSS` , what is its reported polyreactivity (PSR sort gate)?
[out] high polyreactivity

* * *

procedure.details: yeast display, Sf9 membrane polyspecificity reagent, FACS + sequencing; frameworks hold sequencing errors
measurement.label: polyreactivity (PSR sort gate)

Example sequences with recorded polyreactivity (PSR sort gate):
polymer.sequence	measurement.label	result
QVQLVESGGGLVQAGGSLRLSCAASVSTFRNYAMGWYRQAPGKERELVAAISGSGVRTYYADSVKGRFTISRDNAKNTVYLQMNSLKPEDTAVYYCAARGQGGPYNYWGQGTQVTVSS	polyreactivity (PSR sort gate)	high polyreactivity
QVQLVESGGGLVQAGGSLRLSCAASGSIFLVNAMGWYRQAPGKERELVAAISWGGGSTYYADSVKGRFTISRDNAKNTVYVQMNSLKPEDTAVYYCAAESYYYIRYFDYSRWMGYWGQGTQVTVSS	polyreactivity (PSR sort gate)	low polyreactivity
QVQLVESGGCLVQAGGSLRLSCAASGSIFPVNAMGWYRQAPGKERELVAAITSSGGTTYYADSVKGRFTISRDNAKNTVYLQMNSLKPEDTAVYYCAADVDVSYWRMEYWGQGTQVTVSS	polyreactivity (PSR sort gate)	high polyreactivity
QVQLVESGGGLVQAGGSLRLSCAASGSIFWTYAMGWYRQAPGKERELVAGIRWSGGTTYADSVKGRFTISRDNAKNTVYLQMNSLKPEDTAVYYCNHYLSTYHGTFTYGYWGQGTQVTVSS	polyreactivity (PSR sort gate)	low polyreactivity
QVQLVESGGGLVQAGGSLRLSCAASGFYYGIGWYRQAPGTERELVAVITRGGSTNYADSVKGRFTISRDNAKNTVYLQMISLKPEDTAVYYCAARLYWAYRYGSWGQGSQVTVSS	polyreactivity (PSR sort gate)	high polyreactivity

[in] Fill in: polyreactivity (PSR sort gate) of `QVQLVESGGGLVQAGGSLRLSCAASGFTSDAYAMGCYRQAPGKDRELVAAISGSGDITYYADSVKGRFTISRDNAKYTVYFQMNSLKPEDTAVYYCSVGSYYAWFYYWGQGTQVTVSS` is ___
[out] high polyreactivity

[in] Need polyreactivity (PSR sort gate) of `QVQLVESGGGLVQAGGSLRLSCAASGGIFGHYGMGWYRQAPGQERELVASISWNGGSTYYADSVKGRFTSSRDNAKNTVYLQMNSLKPEDTAVYYCAARAIWLRYVGYTYYYWGQGTQVTVSS` , thanks.
[out] high polyreactivity

[in] Which polyreactivity (PSR sort gate) reading was recorded for the sequence `QVQLVESGGGLVQAGGSLRLICAASGRIFYRYAMGWYRQAPGKERELVAAITWRGGSTYYADSVKGRFTISRDNAKNTVYLQMNSLKPEDTAVYYCAAAAYGVPWRSYLGVFKSHMDYWGQGTQVTVSS` ?
[out] high polyreactivity

[in] Report polyreactivity (PSR sort gate) for `QVQLVESGGGLVQAGGSLRLSCAASGFTFRDYAMGWYRQAPGKERELVAAITRSGGRTYYADSVKGRFTISRDNAKNTVYLQMNSLKPEDTAVYYCNALDYLYGGIYLEEDYWGQGTQVTVSS` please.
[out] low polyreactivity

[in] Report polyreactivity (PSR sort gate) for `QVQHVESGGGLVQAGASLRLSCAASGTTFIGYERGRSRQAPGKVRELVAAISYSDGTYYADSVKGRFTISRENAKNTVYLQMNSLKPEDTAVYYCAADSLFYRYDYWGQGTQVTVSS` please.
[out] low polyreactivity

[in] Look at this sequence and give its reported polyreactivity (PSR sort gate). `QVQLVESGGGLVQAGGSLRLSCAASGFTFNDYAMGWYRQAPGKERELVAAIDWSGGRTYYADSVKGRFTISRDNAKNTVYLQMNSLKPEDTAVYYCATEYYDGYFPTFDYDYWGQGTQVTVSS`
[out] low polyreactivity

* * *

procedure.details: yeast display, Sf9 membrane polyspecificity reagent, FACS + sequencing; frameworks hold sequencing errors
measurement.label: polyreactivity (PSR sort gate)

Example results:
polymer.sequence	measurement.label	result
QVQLVESGGGLVQAGGRLRLSCAASGSIFGTNAMGWYRQAPGKERELVAAISSSGTSTYYADSVKGRFTISRDNAKNTVYLQMNSLKPEDTAVYYCAAATNWGGEYWGQGTQVTVSS	polyreactivity (PSR sort gate)	high polyreactivity
QVQLVESGGGLVQAGGSLRLSCAASGGIFFSNVMGWYRQAPGKERELVAAITSGDNTNYADSVKGRFTISRDNAKNTVYLQMNSLKPEDTAVYYCNADVASEYSDKYDYWGQGTQVTVSS	polyreactivity (PSR sort gate)	low polyreactivity
QLQLVESGGGLVQAGGSLRLSCAASGRIFWPNALGWYRQAPGKEREFVAAIRWSSDRTYYADSVKGRFTISRDNAKNTVYLQRNSLKPEDTAVYYCNAVRYVISKYDYWGQGTQVTVSS	polyreactivity (PSR sort gate)	high polyreactivity
QVQLVESVGGLVQAGGSLRLSCDASGYIFKNYAMGWYIQAPGKERELVAAINWSGGNTYYADSVKGRFTISRDNAKNTVYLQMNSLKPEDTAVYYCNAVSSLRSYGYNYCGQGTQVTVSS	polyreactivity (PSR sort gate)	low polyreactivity
QVQLVESGGGLVQAGGSLRLSCAASGRIFVRYARGWYSQAPGKERELVAAITSGGRTSYADSVKGRFTISRDNAKNTVYLQMNSLKPEDTAVYYWNVVSRNSIRFDYWGQGTQVTVSS	polyreactivity (PSR sort gate)	high polyreactivity
QVQLVESGGGLVQAGGSRRLSCAASGRVFFNNAMGWYRQAPGKDREWVAGITSGSSTNYADSVKGRFTISRDNAKNTVYLQMNSLKPEYTAVDYCNKAPSWWDVRVPFDYWGQGTQVTVSS	polyreactivity (PSR sort gate)	low polyreactivity

[in] polyreactivity (PSR sort gate) for `QVQLKERGGGLVQAGGSLRLSCAAIGPISRRSTMGWYRQAPGKERELVTDITRGTNTNYADSVKGRFTISRDNAKNTEYLQMNSLKPEDTAVYYCEAYGVLKPSRGDAVFHRYWGQGTQVTVSS` ?
[out] low polyreactivity

[in] Quick check: polyreactivity (PSR sort gate) of `QVQLVESGGGLVQAGGSLRLSCAASGRIFSHNVMGWYRQAPGKERELVAAISWSSGSTYYADSVKGRFTISRDNAKNTVYLQMNSLKPEDTAVYYCNAATRPTGDYWGQGTQVTVSS` ?
[out] low polyreactivity

[in] Name the reported polyreactivity (PSR sort gate) value associated with the sequence `QEQLQESGGGLVQAGGSLRLSCAASGNISTHQLYMGSYRQAPGKEREFVAAINFGASTYYADSVKGRNTISRDNAKYTVYLQMNSLKPEDTAVYYCNADWYYYYEVDDYWGQGTQVTVSS`
[out] low polyreactivity

[in] Item under review: `QVQHVESRGGLVQAGGSLRLSCAASGITLPKYAMGCYRQAPGKERELAAAISRRGGITYYADSVKGRFTISRDNAKNSVYLQMNSQKPEDTAVYYCAADRTDTRGFDYWGQGTQVTVSS` . Reported polyreactivity (PSR sort gate)?
[out] high polyreactivity

[in] Consider the sequence `QVQLVESGGGLVQAGGSLRLSCAASGSIFGTYAMGWYRPAPGNERELVAAITWRDDGNTYYADSVQGRFTISRDNAKNTVYLQMNSLQPEDTAVYYGAASRAYGKDAYRGYSYRYDYWGQGTQGTVSS` and give its measured polyreactivity (PSR sort gate).
[out] high polyreactivity

* * *

procedure.details: yeast display, Sf9 membrane polyspecificity reagent, FACS + sequencing; frameworks hold sequencing errors
measurement.label: polyreactivity (PSR sort gate)

Please review the following examples before continuing.
polymer.sequence	polyreactivity (PSR sort gate)
QVQLVESGGRLVQAGGSLRLSCAASGSTFQFNVMGWYRQAPGKERELVAAITSGASTYYADSVKGRFTISRDNAKNTVYLQMNSLEPEDTAVYYCAVDYSFRYDYVQRYYYWGQGTQVTVSS	high polyreactivity
QVQLVESGGGLVQAGGSLRLSCHASGFIFGYKAMGWYRQAPGKERELVAAISSGGSTYYADSVKGRFTISRDNAKYTVYLQMKSLKPEDTAVFYCATVFVVLPPTRFDSWGQGTQVTVSS	low polyreactivity
QVQLVESGGGLVQAGGSLRLSCDASGRILKYNAMGWYRQAPGKERELVAAISGSGGRTYYADSVKGRFTISRDNAKNTVYLQMNSLKPEDTAVYYCAASNASPGGFNYWGQGTQVTVSS	high polyreactivity
QVQLVESGGGLVQAGGSLRLSCAASGRIFSYNAMGSDRQAPGKERELVADISSGGSTYYADSVKGRFTISRDNAKNSVYLQMNSLKPEDSAVYYCNADYYAFPWTNEYWGQGTQVTVSS	high polyreactivity
QDQLVESGGGLVQAGGSLRISCAASGSIFAWYAMAWYRESPGKERELVATITWSGGSTYYADSVKGRFTISRDNAKNTVYLQMNSLKPEDTAVYYCAAEVVGIWYDLWYQGDYWGQGTQVTVSS	low polyreactivity
QVQLVESGGGLVQAGGRLRLRCAASGSTFSYYAMGWYRQAPGKERELVADISSGGTTNYADSVKGRFTISRDNAKNTVYLQMNSLKPEDTSVYYCNRRYSYYDGFDYWGQGTQVTVSS	low polyreactivity
QVQLVESGGGLVQAGGSLRLSCAASGSTFLDYDMGWYRQAPGKERELVATINSVGSTYYADSVKGRFTISRDNAKNTVYLQMNSLKPEDTAVYYCAARQEPGWYPDVWWEYDYWGQGTQVTVSS	low polyreactivity
QVQLVESGGGLVQAGGSLRLNCAASGSTFNRNAMGWYRQAPGKERELVATISSGGSTNYADSVKGRFTITRDNAKNTVYLLMISLYPEDTWVYYCAKRSLYRYYYWGQGSQVTVSS	high polyreactivity
QVQLVESGGGLVQAGGSLRLSCAASGSIFLVTAMGWYRQAPGKERELVAAITFGGDSTYYADSVKGRFTISRDNAKNTVYLQMNSLKPEDTAVYYCAADPSPYGDEYDYWGQGTQVTVSS	low polyreactivity
QVQLVESGGGLVQAGGSLRLSCAASGRTFRPYAMGWYRQAPGKERELVAAIDSSGTSTYYADSVKGRFTISRDNAKNTVYLQMNSLKPEDTAVYYCNTSLKRRRLRFNYWGQGTQVTVSS	low polyreactivity

Consider the record given below.
[in] Give the measured polyreactivity (PSR sort gate) of `QVQLVESGGALVQAGGSLRLSCAASGRTFGINAMGWYRQAPGKERELVAAIRTGGSTYYADSVKGRFTISRDNAKNTVYLQMNSLKPADTAVYYCAAKAYRRYTIPPYGYWGQGTQVTVSS` .
[out] high polyreactivity
